So I've got Ki readings for PI3Kδ (Homo sapiens (Human), UniProt O00329), take a look.
measured.metric: Ki (µM)

>>> reported_measurement("Cc1c(-c2cccc(O)n2)nc2cc(F)ccc2c1N1CC2(CCOCC2)c2ccc(N3CCOCC3)cc21")
0.155
>>> reported_measurement("Cc1c(-c2cccc3ccccc23)nc2cc(F)cc(F)c2c1N1CC(C)(C)c2ncc(N3CCOCC3)cc21")
0.23
>>> reported_measurement("Cc1c(CCc2ccccc2)nc2cc(F)cc(F)c2c1N1CC(C)(C)c2ncc(N3CCOCC3)cc21")
0.00812
>>> reported_measurement("Cc1c(-c2ccccn2)nc2cc(F)ccc2c1N1CC2(CCOCC2)c2nc(N)c(N3CCOCC3)cc21")
0.029
>>> reported_measurement("Cc1ccnc(-c2nc3cc(F)cc(F)c3c(N3CC(C)(C)c4ncc(N5CCOCC5)cc43)c2C)c1")
0.0184
>>> reported_measurement("Cc1c(-c2ccccc2S(C)(=O)=O)nc2cc(F)ccc2c1N1CC(C)(C)c2ncc(N3CCOCC3)cc21")
0.0078
>>> reported_measurement("Cc1c(-c2ccccn2)nc2cc(F)cc(F)c2c1N1CC2(CCOCC2)c2ccc(N3CCOCC3)cc21")
0.0211
>>> reported_measurement("COc1cccc(-c2nc3cc(F)ccc3c(N3CC4(CCOCC4)c4ccc(N5CCOCC5)cc43)c2C)n1")
0.0688
>>> reported_measurement("Cc1c(-c2ccccc2)nc2ccccc2c1N1CC2(CCOCC2)c2ccc(N3CCOCC3)cc21")
0.0913
>>> reported_measurement("Cc1c(-c2cc(F)cc(F)c2)nc2ncccc2c1N1CC2(CCOCC2)c2ncc(N3CCOCC3)cc21")
0.0282
>>> reported_measurement("COc1cc2nc(C)c(C)c(N3CC(C)(C)c4ccc(N5CCOCC5)c(C)c43)c2cc1Cl")
3.96
>>> reported_measurement("Cc1c(Cc2cccc(C#N)c2)nc2cc(F)cc(F)c2c1N1CC(C)(C)c2ncc(N3CCOCC3)cc21")
0.00268
>>> reported_measurement("Cc1c(-c2ccccn2)nc2cc(F)ccc2c1N1CC2(CCOCC2)c2nc(Cl)c(N3CCOCC3)cc21")
0.0133
>>> reported_measurement("Cc1c(-c2cccc(F)c2)nc2ncccc2c1N1CC2(CCOCC2)c2ncc(N3CCOCC3)cc21")
0.0278
>>> reported_measurement("Cc1c(-c2ccccn2)nc2cc(F)ccc2c1N1CC(C)(C)c2ncc(-c3cn[nH]c3)cc21")
0.0952
>>> reported_measurement("Cc1c(N2CCCC2=O)nc2cc(F)cc(F)c2c1N1CC2(CCOCC2)c2ncc(N3CCOCC3)cc21")
0.00236
>>> reported_measurement("Cc1c(-c2ccccn2)nc2cc(F)cc(F)c2c1N1CC2(CCOCC2)c2ncc(N3CCOCC3)cc21")
0.00944
>>> reported_measurement("COc1cc2nc(C)c(C)c(N3CC4(CCOCC4)c4ccc(C#N)cc43)c2cc1Cl")
7.5
